- System: CCRIS mutagenicity, Ames/micronucleus/aberration tests
- EXPERIMENT DESCRIPTION: CCRIS mutagenicity studies
- MEASUREMENT CONTEXT: Test System: AMES SALMONELLA TYPHIMURIUM; Strain/Indicator: TA98; Metabolic Activation: RAT, LIVER, S-9, AROCLOR 1254; Method: STANDARD PLATE
The source made the active and inactive calls. The rule behind the calls is not given here.
Pick one: 1 (active), -1 (inactive)

Some solved entries appear below for comparison.
NC(=Nc1ccccc1)Nc1ccccc1: -1
C=C(C)C(=O)OCCCCC: -1
Cc1cc(C)c2ccc3ccccc3c2c1: 1
CCOC(=O)CC(SP(=S)(OC)OC)C(=O)OCC (stereo not drawn): -1
CC(=O)Nc1ccc(OC(=O)c2ccccc2OC(C)=O)cc1: -1

input: So what was the verdict on Clc1ccc2ccc3cccc4ccc1c2c34 in this test?
output: 1

input: So what was the verdict on Cc1ccccc1-c1ccc(N)cc1 in this test?
output: 1

input: So what was the verdict on F in this test?
output: -1

input: So what was the verdict on COc1cccc2c1C(=O)c1c(O)c3c(c(O)c1C2=O)C[C@@](O)(C(C)=O)C[C@@H]3O[C@H]1C[C@H](N)[C@H](O)[C@H](C)O1 in this test?
output: 1

input: So what was the verdict on C[C@H]1CCC[C@@]2(C)CCCC[C@]12O in this test?
output: -1

input: So what was the verdict on COP(=S)(OC)Oc1ccc(N)c(C)c1 in this test?
output: -1
